# Tested on: Escherichia coli
# PROTOCOL_NOTES: Inhibition of protein synthesis in Escherichia coli S30 extract by coupled transcription/translation assay
# Format: functional
In plain terms, low IC50, meaning strictly below 0.7 µg/mL, gives criterion met, and everything else gives criterion not met.

[Q] Below 0.7 µg/mL on IC50? Entry `CCCNc1nc(Cl)c2c(c1O)C(=O)C1=C(O)[C@]3(O)C(=O)C(C(N)=O)=C(O)[C@@H](N(C)C)[C@@H]3C[C@@H]1C2.Cl.Cl.Cl`
[A] criterion not met

[Q] Below 0.7 µg/mL on IC50? Entry `CN(C)[C@@H]1C(O)=C(C(N)=O)C(=O)[C@@]2(O)C(O)=C3C(=O)c4c(O)c(N)nc(Cl)c4C[C@H]3C[C@@H]12`
[A] criterion not met

[Q] Below 0.7 µg/mL on IC50? Entry `CN(C)c1cc(NC(=O)CNC(C)(C)C)c(O)c2c1C[C@H]1C[C@H]3[C@H](N(C)C)C(O)=C(C(N)=O)C(=O)[C@@]3(O)C(O)=C1C2=O`
[A] criterion met

[Q] Below 0.7 µg/mL on IC50? Entry `CN(C)[C@@H]1C(O)=C(C(N)=O)C(=O)[C@@]2(O)C(O)=C3C(=O)c4c(O)c(NC(=O)CNC(C)(C)C)nc(F)c4C[C@H]3C[C@@H]12.Cl.Cl`
[A] criterion met

[Q] Below 0.7 µg/mL on IC50? Entry `CCCNc1nc(N(C)C)c2c(c1O)C(=O)C1=C(O)[C@]3(O)C(=O)C(C(N)=O)=C(O)[C@@H](N(C)C)[C@@H]3C[C@@H]1C2.Cl.Cl`
[A] criterion not met
